Assay: FRG1 expression reporter modulators in myotubes – cell-based, C2C12 myotubes, firefly/Renilla luciferase, luminescence, FRG1 inhibition for FSHD, primary screen (AID 1084)
Settings: FRG1 promoter luciferase, higher = more signal, called active from +8 up or from −8 down
The source made the active and inactive calls.
reported-metric: z-score

Name the reported z-score value associated with the compound COc1ccc(C#Cc2ccc3c(c2)[C@]2(C(=O)N3)[C@H](C(=O)N3CCc4cc(OC)c(OC)cc4C3)[C@H]3C(=O)O[C@H](c4ccccc4)[C@H](c4ccccc4)N3[C@@H]2c2ccc(OCCO)cc2)cc1 0.239 (inactive)

Name the reported z-score value associated with the compound COCCOC(=O)N1C(=O)[C@@]2(c3ccccc31)[C@H](c1ccc(O)cc1)N1[C@H](c3ccccc3)[C@H](c3ccccc3)OC(=O)[C@H]1[C@@H]2C(N)=O -1.16 (inactive)

Name the reported z-score value associated with the compound CO[C@H]1O[C@H](CO)[C@@H](OC(=O)Nc2ccccc2-c2ccccc2)[C@H](OC(=O)Nc2ccccc2-c2ccccc2)[C@H]1OC(=O)Nc1ccccc1-c1ccccc1 0.849 (inactive)
